Origin of measurements: ChEMBL document CHEMBL1149507

Listed compounds paired with reported inhibition at 5 µM
test system: PC-3; assay: Antiproliferative activity against human PC3 cell line at 5 uM by MTT assay; type: functional
reported-property: inhibition at 5 µM

[[record]]
compound = "COc1cc(C2=NN(C(C)=O)C(c3c(Cl)cccc3Cl)O2)cc(OC)c1OC (stereo not given)"
measured_on = "PC-3"
meas_value = "-2.2%"

[[record]]
compound = "COc1cc(C(=O)N/N=C/c2ccc(C(F)(F)F)cc2)cc(OC)c1OC"
measured_on = "PC-3"
meas_value = "61.6%"

[[record]]
compound = "COc1cc(C(=O)N/N=C/c2cc(Cl)cc(Cl)c2)cc(OC)c1OC"
measured_on = "PC-3"
meas_value = "46.3%"

[[record]]
compound = "COc1cc(C2=NN(C(C)=O)C(c3ccc(Cl)c(Cl)c3)O2)cc(OC)c1OC (stereo not given)"
measured_on = "PC-3"
meas_value = "26.1%"

[[record]]
compound = "COc1cccc(/C=N/NC(=O)c2cc(OC)c(OC)c(OC)c2)c1OC"
measured_on = "PC-3"
meas_value = "67%"

[[record]]
compound = "COc1ccc(/C=N/NC(=O)c2cc(OC)c(OC)c(OC)c2)c(OC)c1"
measured_on = "PC-3"
meas_value = "22.2%"

[[record]]
compound = "COc1cc(C(=O)N/N=C/c2cccc(C(F)(F)F)c2)cc(OC)c1OC"
measured_on = "PC-3"
meas_value = "79.8%"

[[record]]
compound = "COc1ccc(OC)c(/C=N/NC(=O)c2cc(OC)c(OC)c(OC)c2)c1"
measured_on = "PC-3"
meas_value = "51.7%"

[[record]]
compound = "COc1cc(C2=NN(C(C)=O)C(c3cc(OC)c(OC)c(OC)c3)O2)cc(OC)c1OC (stereo not given)"
measured_on = "PC-3"
meas_value = "0.1%"

[[record]]
compound = "COc1cc(C2=NN(C(C)=O)C(c3ccc(F)c(F)c3)O2)cc(OC)c1OC (stereo not given)"
measured_on = "PC-3"
meas_value = "46.9%"

[[record]]
compound = "COc1cc(C(=O)N/N=C/c2ccccc2F)cc(OC)c1OC"
measured_on = "PC-3"
meas_value = "81.8%"

[[record]]
compound = "COc1cc(/C=N/NC(=O)c2cc(OC)c(OC)c(OC)c2)cc(OC)c1OC"
measured_on = "PC-3"
meas_value = "48.3%"

[[record]]
compound = "COc1cc(C2=NN(C(C)=O)C(c3ccc(Cl)c([N+](=O)[O-])c3)O2)cc(OC)c1OC (stereo not given)"
measured_on = "PC-3"
meas_value = "61.4%"

[[record]]
compound = "COc1cc(C(=O)N/N=C/c2cccc(F)c2)cc(OC)c1OC"
measured_on = "PC-3"
meas_value = "64.1%"

[[record]]
compound = "COc1ccc(C2OC(c3cc(OC)c(OC)c(OC)c3)=NN2C(C)=O)c(OC)c1 (stereo not given)"
measured_on = "PC-3"
meas_value = "92%"

